Catalogue of Herbicidal rating MOOVA values
Tested on: MOOVA (Monochoria)
Assay: Postemergence weed control under flooded paddy conditions
Type: in vivo, Monochoria vaginalis
Conditions: Rate 0.0625 kg/ha, postemergence weeds, rated 3 to 4 weeks after treatment
Excerpt: Results of herbicide evaluation are expressed on a rating scale (0-9). The scale is based upon a visual observation of plant stand, vigor, malformation, size, chlorosis and overall plant appearance as compared with a control. Plastic containers containing weeds which are 3 to 5 cm tall and rice seedlings at the 1.5 to 2.5 leaf stage are flooded with water. […] The compounds evaluated are reported by compound number given in Example 37.
Could you respond with only the numeric value?

> print(dat)
                                   compound        measured.property  experimental.result
1  C=CCN1C(=O)C(CC(=O)NS(=O)(=O)c2ccccc2)SC1=Nc1cc(-n2c(=O)cc(C(F)(F)F)n(C)c2=O)c(F)cc1Cl (stereo not drawn)  Herbicidal rating MOOVA                  5.0
2  CCOC(=O)CN1C(=O)C(CC(=O)Nc2ccccc2)SC1=Nc1cc(-n2c(=O)cc(C(F)(F)F)n(C)c2=O)c(F)cc1Cl (stereo not drawn)  Herbicidal rating MOOVA                  9.0
3  C#CCOC(=O)CC1SC(=Nc2cc(-n3c(=O)cc(C(F)(F)F)n(C)c3=O)c(F)cc2Cl)N(C)C1=O (stereo not drawn)  Herbicidal rating MOOVA                  9.0
4  CC(C)S(=O)(=O)NC(=O)CC1SC(=Nc2cc(-n3c(=O)cc(C(F)(F)F)n(C)c3=O)c(F)cc2Cl)N(C)C1=O (stereo not drawn)  Herbicidal rating MOOVA                  7.0
5  C=CCN1C(=O)C(CC(=O)NS(=O)(=O)CC)SC1=Nc1cc(-n2c(=O)cc(C(F)(F)F)n(C)c2=O)c(F)cc1Cl (stereo not drawn)  Herbicidal rating MOOVA                  9.0
6  C=CCN1C(=O)C(CC(=O)NC)SC1=Nc1cc(-n2c(=O)cc(C(F)(F)F)n(C)c2=O)c(F)cc1Cl (stereo not drawn)  Herbicidal rating MOOVA                  9.0
7  C=CCN1C(=O)C(CC(=O)OC)SC1=Nc1cc(-n2c(=O)cc(C(F)(F)F)n(C)c2=O)c(F)cc1Cl (stereo not drawn)  Herbicidal rating MOOVA                  9.0
8  CN1C(=O)C(CC(=O)Nc2ccccc2)SC1=Nc1cc(-n2c(=O)cc(C(F)(F)F)n(C)c2=O)c(F)cc1Cl (stereo not drawn)  Herbicidal rating MOOVA                  9.0

Pending compound:
Prompt line: Reported Herbicidal rating MOOVA for MOOVA (Monochoria), given CCOC(=O)CN1C(=O)C(CC(=O)NO)S/C1=N/c1cc(-n2c(=O)cc(C(F)(F)F)n(C)c2=O)c(F)cc1Cl (stereo not drawn) ?
Response line: 9.0

---

System: ABUTH (Velvetleaf)
Assay: Preemergence herbicidal evaluation
Format: in vivo, Abutilon theophrasti
Conditions: rate 0.1250 kg/ha; rated 4-5 weeks after treatment
measured-property: ABUTH preemergence herbicidal rating
Could you respond with only the numeric value?

> print(dat)
                                   compound       tested.target  experimental.result
1  CCOC(=O)CN1C(=O)C2(CC2)SC1=Nc1cc(-n2c(=O)cc(C(F)(F)F)n(C)c2=O)c(F)cc1Cl  ABUTH (Velvetleaf)                  9.0

Prompt line: Quick check: ABUTH preemergence herbicidal rating of CCOC(=O)CN1C(=O)C(CC(=O)O)S/C1=N/c1cc(-n2c(=O)cc(C(F)(F)F)n(C)c2=O)c(F)cc1Cl (centres unmarked) ?
Response line: 8.9

Prompt line: Also check CCOC(=O)CN1C(=O)C(Cc2ccccc2)SC1=Nc1cc(-n2c(=O)cc(C(F)(F)F)n(C)c2=O)c(F)cc1Cl (centres unmarked)
Response line: 9.0

Prompt line: Also check CN1C(=O)CS/C1=N/c1cc(-n2c(=O)cc(C(F)(F)F)n(C)c2=O)c(F)cc1Cl
Response line: 9.0

Prompt line: Also check CCOC(=O)/C=C1/S/C(=N/c2cc(-n3c(=O)cc(C(F)(F)F)n(C)c3=O)c(F)cc2Cl)N(CC(=O)OCC)C1=O
Response line: 9.0
